These entries and their values trace back to BindingDB's records for doi:10.1021/jm00394a022.

# testedOn: Glutamine synthetase (Ovis aries)
# measurementNotes: Compound was evaluated for binding affinity by the inhibition of Glutamine synthetase (Ovine brain) activity using biosynthetic assay [competitive inhibition]
readout: pKi
Reminder that pKi is minus the log10 of a molar concentration.

Query: pKi; subject: NC(CCP(=O)(O)CP(=O)(O)O)C(=O)O (stereo unspecified)
3.12

---

readout: Ki (µM)
Quick note: give the figure in µM, leave out the unit.

API: value(readout=Ki, system=Glutamine synthetase (Escherichia coli) (UniProt P0A9C5)) for record NC(CCP(=O)(O)CP(=O)(O)O)C(=O)O (stereo unspecified)
75

---

# testedOn: Glutamine synthetase (Pisum sativum)
# measurementNotes: Compound was evaluated for binding affinity by the inhibition of Glutamine synthetase (Pea seed) activity using biosynthetic assay [noncompetitive inhibition]
readout: pKi
Note: pKi values are expressed as the negative base-10 logarithm of concentration in M.

Entry NC(CCP(=O)(O)CP(=O)(O)O)C(=O)O (stereo unspecified) : reported pKi = ?
3.60
